Target: Leucotriene D4 Receptor (Cavia porcellus, UniProt Q2NNR5)
Construct: guinea pig pulmomembranous protein; from tissue; host or cells: guinea pig lung membranes
Sequence (Q2NNR5 1-340): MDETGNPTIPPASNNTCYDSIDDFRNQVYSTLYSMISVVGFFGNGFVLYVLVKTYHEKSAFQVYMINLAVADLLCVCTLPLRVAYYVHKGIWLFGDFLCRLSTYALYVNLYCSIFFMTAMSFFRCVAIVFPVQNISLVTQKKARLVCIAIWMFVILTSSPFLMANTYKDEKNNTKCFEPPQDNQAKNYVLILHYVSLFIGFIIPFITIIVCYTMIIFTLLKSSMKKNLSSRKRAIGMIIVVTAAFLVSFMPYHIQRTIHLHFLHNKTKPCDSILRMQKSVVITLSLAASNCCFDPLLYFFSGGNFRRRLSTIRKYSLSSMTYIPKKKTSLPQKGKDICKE
Experiment: Leucotriene D4 Receptor Binding Inhibition Test
Parameters: species or system guinea pig
Conditions: 0.2 nM [3H]leukotriene D4, guinea pig pulmomembranous protein, pH 7.5, 30 min; calculated from IC50 by Cheng-Prusoff formula; read-out: LTD receptor, dissociation constant KD
Listing of recorded Kd by entry.

MOLECULE: Cn1c(COc2cccc(-c3cc(=O)c4cc(Br)cc(C(=O)O)c4o3)c2)nc2ccccc21 [Example 28]
RESULT UNITS: nM
Kd: 210
//
MOLECULE: O=C(O)c1cc(Br)cc2c(=O)cc(-c3cccc(OCc4ccc5ccccc5c4)c3)oc12 [Example 26]
RESULT UNITS: nM
Kd: 1130
//
MOLECULE: O=C(O)c1cc(F)cc2c(=O)cc(-c3cccc(/C=C/c4ccc5ccccc5n4)c3)oc12 [Example 40]
RESULT UNITS: nM
Kd: 127
//
MOLECULE: O=C(O)c1cc(Br)cc2c(=O)cc(-c3cccc(OCc4nc5ccccc5s4)c3)oc12 [Example 27]
RESULT UNITS: nM
Kd: 79.4
//
MOLECULE: O=c1cc(-c2cccc(/C=C/c3ccc4ccccc4n3)c2)oc2ccc(-c3nnn[nH]3)cc12 [Example 37]
RESULT UNITS: nM
Kd: 307

From: patent US6136848A
